These entries and their values trace back to patent US20030145348A1.

Molecular target: dehydroquinate dehydratase/shikimate dehydrogenase (Nicotiana tabacum, UniProt Q6PUF9)
Sequence (Q6PUF9 entry or part of it): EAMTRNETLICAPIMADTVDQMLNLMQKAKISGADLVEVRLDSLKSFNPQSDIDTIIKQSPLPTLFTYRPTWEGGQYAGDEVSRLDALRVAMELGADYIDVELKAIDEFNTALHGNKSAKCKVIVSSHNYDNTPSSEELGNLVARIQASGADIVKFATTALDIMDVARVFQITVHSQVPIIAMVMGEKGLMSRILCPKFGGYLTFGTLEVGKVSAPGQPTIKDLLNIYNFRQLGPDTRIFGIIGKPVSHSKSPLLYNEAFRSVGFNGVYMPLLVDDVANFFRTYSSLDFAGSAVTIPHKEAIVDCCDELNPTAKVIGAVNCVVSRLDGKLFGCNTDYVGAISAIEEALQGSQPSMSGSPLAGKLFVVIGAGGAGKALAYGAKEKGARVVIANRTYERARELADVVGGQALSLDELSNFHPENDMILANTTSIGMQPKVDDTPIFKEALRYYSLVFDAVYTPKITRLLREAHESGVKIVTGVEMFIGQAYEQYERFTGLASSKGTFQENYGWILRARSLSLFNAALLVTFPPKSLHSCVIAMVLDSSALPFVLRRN
Assay: shikimate dehydrogenase activity assay of Example 5A (NADPH formation, OD 334 nm)
Settings: 0.1 mM shikimate, 0.1 mM NADP, pH 9.9
The label condition met is reserved for IC50 strictly under 10 µM; condition not met covers values equal to or above it.

INSERT INTO measurements (compound, qualitative_label) VALUES
  ('O=c1[nH]c2ccccc2c(=O)n1CCN1CC2C[C@@H](c3cccc(Cl)c3)C2C1 (some centres unmarked)', 'condition not met'),
  ('COc1cc(C(=S)N[C@H]2CC[C@@H](C(C)(C)C)CC2)ccc1OC(C)=O', 'condition not met'),
  ('O=C(Nc1c(Cl)cc(Cl)cc1Cl)c1cccc(O)c1O', 'condition met'),
  ('CC(=N\O)/C(=N/Nc1ccc(S(C)(=O)=O)cc1)c1ccc(Cl)cc1', 'condition met'),
  ('O=C(NNC(=O)c1sc2ccccc2c1Cl)Nc1cccc(Cl)c1', 'condition not met');
